- experimentalProtocol: LNP size and PDI by dynamic light scattering
- Type: physicochemical
- conditionContext: mRNA LNP, cationic lipid/DSPC/cholesterol/PEG-lipid 50:10:38.5:1.5
readoutName: PDI

molecule | PDI
CCCCCCCCC(C(=O)NCCCCCCCCCC(=O)OCCCCCC)N(CCCN(CCO)CCO)C(=O)CCCCCCCCCC(=O)OC(CCCCCC)CCCCCC (stereo not drawn) | 0.306
CCCCCCCCNC(=O)C(CCCCCCCC)N(CCCN1CCCC1)C(=O)CCCCCCC(=O)OC(CCCCCCCC)CCCCCCCC (stereo not drawn) | 0.17
CCCCCC/C=C\CCCCCCCC(C(=O)NCCCCCCCC/C=C\CCCCCCCC)N(CCCN(C)C)C(=O)CCCCCCC/C=C\CCCCCCCC (stereo not drawn) | 0.24

Data provenance is patent US20260078099A1.
